# system: hGIPR (Homo sapiens)
# Sequence (P48546 22-466): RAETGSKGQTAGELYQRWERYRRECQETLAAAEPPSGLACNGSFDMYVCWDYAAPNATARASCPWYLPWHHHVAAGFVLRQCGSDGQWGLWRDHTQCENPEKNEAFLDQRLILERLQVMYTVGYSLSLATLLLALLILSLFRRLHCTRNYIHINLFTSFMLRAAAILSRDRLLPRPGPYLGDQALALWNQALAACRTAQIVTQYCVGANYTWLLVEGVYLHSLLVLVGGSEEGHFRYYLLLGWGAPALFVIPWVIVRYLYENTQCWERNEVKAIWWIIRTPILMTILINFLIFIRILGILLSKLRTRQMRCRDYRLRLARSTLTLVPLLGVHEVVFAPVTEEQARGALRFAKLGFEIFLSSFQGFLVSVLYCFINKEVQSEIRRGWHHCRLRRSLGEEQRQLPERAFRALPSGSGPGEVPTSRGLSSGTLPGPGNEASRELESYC
# assay method text: Functional cAMP activation in the presence of 0.1% casein (no HSA);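 also: intracellular cAMP rise after 30 min at 37 °C read by HTRF against a standard curve, scaled between buffer alone (0%) and top control ligand concentration (100%), four-parameter fit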
# Assay type: cell-based
# run conditions: read-out: Relative cAMP EC50, hGIPR
Starred links: 1 amine or outer side, 2 acyl side, 3 side chain; linkers in the order of their positions; H or OH if unused. Non-standard residues stand in square brackets, D forms with d. Groups on a side chain read outwards from the residue. No end group written: not given here. *: point of attachment. C18 diacid = O=C(O)CCCCCCCCCCCCCCCCC(=O)*; αMePhe(2-F) = C[C@](N)(Cc1ccccc1F)C(=O)O; γGlu = O=C(O)[C@H](CCC(=O)[*:2])N[*:1]; αMe4Pal = C[C@](N)(Cc1ccncc1)C(=O)O; αMeY = C[C@](N)(Cc1ccc(O)cc1)C(=O)O; 4Pal = N[C@@H](Cc1ccncc1)C(=O)O; Aad = N[C@@H](CCCC(=O)O)C(=O)O; αMeL = CC(C)C[C@](C)(N)C(=O)O; αMeS = C[C@](N)(CO)C(=O)O; Orn = NCCC[C@H](N)C(=O)O; AEEA = NCCOCCOCC(=O)O; Aib = CC(C)(N)C(=O)O
readout kind: pEC50
Lab note — pEC50 values are minus log10 of concentrations in M.

Recorded results for 3 substances are shown here.
substance	system	recorded result
H-Y[Aib]QGT[αMePhe(2-F)]TSD[4Pal]SI[αMeL]LD[Orn]K([AEEA-γGlu-C18 diacid])AQ[αMe4Pal]EFI[dE][αMeY]LIEGGPSSGAPPPSGS-NH2 [Example 640]	hGIPR (Homo sapiens)	11.16
H-Y[Aib]QGT[αMePhe(2-F)]TSD[4Pal][αMeS]I[αMeL]LD[Orn]K([γGlu-γGlu-C18 diacid])AQ[Aib][Orn]FI[dE][αMeY]LAEGGPSSGEPPPSGAEE-NH2 [Example 591]	hGIPR (Homo sapiens)	10.24
H-Y[Aib]QGT[αMePhe(2-F)]TSD[4Pal]SILLD[Orn]K([γGlu-γGlu-C18 diacid])AQ[Aib][Orn]FIEYLQEGGPSSGAPPPSGTEE-NH2 [Example 582]	hGIPR (Homo sapiens)	9.99

Problem: # pEC50 lookup, item H-Y[Aib]QGT[αMePhe(2-F)]TSD[4Pal]SI[αMeL]LDKK([γGlu-γGlu-C18 diacid])AQ[Aib]AFIEYLEEGGPSSGEPPPSGTGE-NH2 [Example 624]
Result: 10.65

Problem: Item Y[Aib]QGT[αMePhe(2-F)]TSD[4Pal]SILLDKK([γGlu-γGlu-C18 diacid])AQ[Aib]AFIEYL[Aad]EGGPSSGAPPPSGTGE-NH2 [Example 661] has what recorded pEC50?
Result: 10.18

----------
# system: hGcgR (Homo sapiens, UniProt P47871)
# Sequence (P47871 26-477): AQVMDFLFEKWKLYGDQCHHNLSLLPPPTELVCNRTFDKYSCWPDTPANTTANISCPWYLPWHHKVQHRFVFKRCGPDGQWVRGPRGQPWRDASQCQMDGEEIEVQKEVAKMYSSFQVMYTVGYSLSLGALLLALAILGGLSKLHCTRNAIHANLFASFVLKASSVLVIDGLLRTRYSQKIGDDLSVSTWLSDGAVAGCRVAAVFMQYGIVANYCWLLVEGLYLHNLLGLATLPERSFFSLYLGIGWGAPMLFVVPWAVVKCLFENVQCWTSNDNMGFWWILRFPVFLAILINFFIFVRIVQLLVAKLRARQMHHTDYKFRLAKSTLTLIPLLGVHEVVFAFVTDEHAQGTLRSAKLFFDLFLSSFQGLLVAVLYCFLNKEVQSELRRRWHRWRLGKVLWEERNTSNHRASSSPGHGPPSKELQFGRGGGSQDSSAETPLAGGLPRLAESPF
# assay method text: Functional cAMP activation in the presence of 0.1% casein (no HSA);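 as to Relative cAMP EC50, hGcgR: intracellular cAMP rise after 30 min at 37 °C, read by HTRF against a cAMP standard curve, scaled from buffer only (0%) to maximal control ligand response (100%)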
# Assay type: cell-based
# run conditions: in the presence of 0.1% casein (no HSA); geometric mean; read-out: Relative cAMP EC50, hGcgR
Starred links: 1 amine or outer side, 2 acyl side, 3 side chain; linkers in the order of their positions; H or OH if unused. Non-standard residues stand in square brackets, D forms with d. Groups on a side chain read outwards from the residue. *: point of attachment. C20 diacid = O=C(O)CCCCCCCCCCCCCCCCCCC(=O)*; C18 diacid = O=C(O)CCCCCCCCCCCCCCCCC(=O)*; γGlu = O=C(O)[C@H](CCC(=O)[*:2])N[*:1]; αMe4Pal = C[C@](N)(Cc1ccncc1)C(=O)O; αMeY = C[C@](N)(Cc1ccc(O)cc1)C(=O)O; 4Pal = N[C@@H](Cc1ccncc1)C(=O)O; αMeL = CC(C)C[C@](C)(N)C(=O)O; Orn = NCCC[C@H](N)C(=O)O; AEEA = NCCOCCOCC(=O)O; Aib = CC(C)(N)C(=O)O
readout kind: EC50 (nM)
Write the value in nM as a bare number.

substance	system	unit of measure	EC50
H-Y[Aib]QGTFTSD[4Pal]SQ[αMeL]LD[Orn]K([AEEA-γGlu-C18 diacid])AQ[Aib]AFIE[αMeY]LLEGGPSSGAPPPSGS-NH2 [Example 911]	hGcgR (Homo sapiens, UniProt P47871)	nM	9.53

Problem: Return reported EC50; argument: H-Y[Aib]QGTFTSD[4Pal]SQ[αMeL]LDKK([Glu-γGlu-Glu-C18 diacid])AQ[αMe4Pal]AFIEYLIE[Aib]GPSSGAPPPSGS-NH2 [Example 896]
Result: 10.6

Problem: Please look up its EC50: H-Y[Aib]QGTFTSDFS[Orn][αMeL]LDKK([AEEA-γGlu-C20 diacid])AQ[Aib]AFIEYLLAGGPSSGEPPPEGE-NH2 [Example 102]
Result: 9.75
